This collection of values is drawn from patent US20240343814A1.

# TARGET_ENTITY: Recombinant human his-tagged IGF 1R extracellular domain protein (human) (UniProt P08069)
# ASSAY_TEXT: SPR, captured IgG, IGF-1R ECD-his analyte, dissociation pH 7.4
READOUT: koff (s⁻¹)

BINDER | UNIT_SYMBOL | REPORTED_VALUE
VRDN-02521 (antibody, V domains shown) VH: EVQLVQSGGGLVKPGGSLRLSCAASGFTFSSFAMHWVRQAPGKGLEWISVIDTRGATYYADSVKGRFTISRDNAKNSLYLQMNSLRAEDTAVYYCARLGNHYYGMDVWGQGTTVTVSS VL: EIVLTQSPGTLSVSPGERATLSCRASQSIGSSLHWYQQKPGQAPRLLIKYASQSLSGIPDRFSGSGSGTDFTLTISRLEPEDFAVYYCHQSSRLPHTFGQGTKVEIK | s⁻¹ | 7.2e-05
VRDN-02503 (antibody, V domains shown) VH: EVQLVQSGGGLVKPGGSLRLSCAASGFHFSSFAMHWVRQAPGKGLEWISVIDTRGATYYADSVKGRFTISRDNAKNSLYLQMNSLRAEDTAVYYCARLGNFYYGMDVWGQGTTVTVSS VL: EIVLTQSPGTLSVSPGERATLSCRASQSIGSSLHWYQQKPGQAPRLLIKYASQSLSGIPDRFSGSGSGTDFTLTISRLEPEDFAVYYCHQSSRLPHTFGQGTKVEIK | s⁻¹ | 0.000161
VRDN-02541 (antibody, V domains shown) VH: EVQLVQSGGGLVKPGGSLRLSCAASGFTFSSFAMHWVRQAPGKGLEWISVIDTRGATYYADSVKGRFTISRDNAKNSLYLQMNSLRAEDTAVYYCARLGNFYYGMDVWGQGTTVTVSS VL: EIVLTQSPGTLSVSPGERATLSCRASQSIGSSLHWYQQKPGQAPRLLIKYAHQSLSGIPDRFSGSGSGTDFTLTISRLEPEDFAVYYCHQSSRLPHTFGQGTKVEIK | s⁻¹ | 1e-06
